System: Staphylococcus aureus CMX 553
Experiment: in vitro antibacterial activity, agar dilution MIC
Type: cell-based
Conditions: organism code FF, BHI agar, 35-37 °C, 20 to 24 hours
Label rule not met if minimum inhibitory concentration (MIC) falls below 0.8; label rule met in every other case.

Query: In plain terms: is recorded minimum inhibitory concentration (MIC) at least 0.8 for CC[C@H]1OC(=O)[C@H](C)[C@@H](O[C@H]2C[C@@](C)(OC)[C@@H](OC(C)=O)[C@H](C)O2)[C@H](C)[C@@H](O[C@@H]2O[C@H](C)C[C@H](N(C)C)[C@H]2O)[C@@]2(C)C[C@@H](C)C(=O)[C@H](C)[C@H]3N(CCNCc4cccc(c4)C=CCO2)C(=O)O[C@]13C [Example 10] ?
Response: rule met

Query: In plain terms: is recorded minimum inhibitory concentration (MIC) at least 0.8 for CC[C@H]1OC(=O)[C@H](C)[C@@H](O[C@H]2C[C@@](C)(OC)[C@@H](O)[C@H](C)O2)[C@H](C)[C@@H](O[C@@H]2O[C@H](C)C[C@H](N(C)C)[C@H]2O)[C@@]2(C)C[C@@H](C)C(=O)[C@H](C)[C@H]3N(CCNCc4cccc(c4)C=CCO2)C(=O)O[C@]13C [Example 11] ?
Response: rule met

Query: In plain terms: is recorded minimum inhibitory concentration (MIC) at least 0.8 for CC[C@H]1OC(=O)[C@H](C)C(=O)[C@H](C)[C@@H](O[C@@H]2O[C@H](C)C[C@H](N(C)C)[C@H]2O)[C@@]2(C)C[C@@H](C)C(=O)[C@H](C)[C@H]3N(CC=CCO2)C(=O)O[C@]13C [Example 16] ?
Response: rule not met

Query: In plain terms: is recorded minimum inhibitory concentration (MIC) at least 0.8 for CC[C@H]1OC(=O)[C@H](C)[C@@H](O[C@H]2C[C@@](C)(OC)[C@@H](O)[C@H](C)O2)[C@H](C)[C@@H](O[C@@H]2O[C@H](C)C[C@H](N(C)C)[C@H]2O)[C@@]2(C)C[C@@H](C)C(=O)[C@H](C)[C@H]3N(CCC=CCO2)C(=O)O[C@]13C [Example 17] ?
Response: rule not met
